Reference source: the supplement of paper PMC11061612

Catalogue of combination Emax values
system: 8-MG-BA (Glioblastoma); experiment: combination Emax (second highest fraction inhibited in the dose matrix, 72 h); higher = more inhibition; extreme values may be limits of the assay

{"molecule": "Cc1c2c(nn1C)CSCc1cc(n(C)n1)CSc1cc(c3ccccc3c1)OCCCc1c(C(=O)O)n(C)c3c-2c(Cl)ccc13 [AZD5991] + C[C@@H](Nc1cc(F)cc(F)c1)c1cc(C(=O)N(C)C)cc2c(=O)cc(N3CCOCC3)oc12 [AZD8186] (first compound max 1 µM, 7x7, partner max 3 µM)", "combination Emax": 0.734}
{"molecule": "COc1nnc2ccc(N3CCC(c4ccc(OCCN5CCN(C)C(=O)[C@H]5C)cc4)CC3)nn12 [AZD5153] + CC1(C)CCC(CN2CCN(c3ccc(C(=O)NS(=O)(=O)c4ccc(NCC5CCOCC5)c([N+](=O)[O-])c4)c(Oc4cnc5[nH]ccc5c4)c3)CC2)=C(c2ccc(Cl)cc2)C1 [Venetoclax] (first compound max 1 µM, 7x7, partner max 1 µM)", "combination Emax": 0.707}
{"molecule": "Cn1cnc2c(F)c(Nc3ccc(Br)cc3Cl)c(C(=O)NOCCO)cc21 [Selumetinib] + C=CCn1c(=O)c2cnc(Nc3ccc(N4CCN(C)CC4)cc3)nc2n1-c1cccc(C(C)(C)O)n1 [AZD1775] (first compound max 10 µM, partner max 1 µM)", "combination Emax": 0.797}
